src = patent US20190153108A1

- tested-target: human Epidermal Growth Factor Receptor (huEGFR) over-expressed in mcl-1-/- mouse embryonic fibroblasts (human, UniProt P00533 25-1210)
- protocol-summary: cell-based or functional assay
reported-metric: huEGFR^+ mcl-1^-/- MEF EC50 (nM)
Your answer should be a plain number; it is taken to be in nM.

AbA-SR (antibody, V domains shown, synthon SR on reduced interchain Cys) VH: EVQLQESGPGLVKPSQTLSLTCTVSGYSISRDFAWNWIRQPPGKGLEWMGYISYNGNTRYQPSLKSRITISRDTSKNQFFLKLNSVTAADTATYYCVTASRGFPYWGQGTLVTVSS VL: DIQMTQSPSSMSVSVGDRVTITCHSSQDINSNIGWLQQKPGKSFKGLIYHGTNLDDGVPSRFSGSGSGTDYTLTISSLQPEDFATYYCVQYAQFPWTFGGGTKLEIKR    5.9
AbB-SR (antibody, V domains shown, synthon SR on reduced interchain Cys) VH: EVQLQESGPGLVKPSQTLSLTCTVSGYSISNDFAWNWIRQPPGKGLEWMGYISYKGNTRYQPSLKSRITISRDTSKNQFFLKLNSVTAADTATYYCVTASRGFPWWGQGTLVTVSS VL: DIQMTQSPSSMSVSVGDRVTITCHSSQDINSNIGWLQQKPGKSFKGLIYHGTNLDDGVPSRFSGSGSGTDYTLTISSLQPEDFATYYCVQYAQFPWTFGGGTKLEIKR    7

Now take the following binder into account.
// query Query (binder): AbB-YG (antibody, V domains shown, synthon YG on reduced interchain Cys) VH: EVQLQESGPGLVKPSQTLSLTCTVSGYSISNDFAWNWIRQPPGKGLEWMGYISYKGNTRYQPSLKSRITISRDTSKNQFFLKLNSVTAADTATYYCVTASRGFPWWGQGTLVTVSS VL: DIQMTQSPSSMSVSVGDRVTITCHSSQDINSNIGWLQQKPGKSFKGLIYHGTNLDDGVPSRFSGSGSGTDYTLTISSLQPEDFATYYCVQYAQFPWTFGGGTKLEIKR ; field requested: huEGFR^+ mcl-1^-/- MEF EC50
// result 3.3
